Cited source: patent US7718390B2

biological target: E. tenella PKG (Eimeria tenella); assay: biochemical; assay type: biochemical; details: native E. tenella PKG; read-out: IC50, inhibition of PKG catalytic activity
Sequence (Q8MMZ8 2-1003): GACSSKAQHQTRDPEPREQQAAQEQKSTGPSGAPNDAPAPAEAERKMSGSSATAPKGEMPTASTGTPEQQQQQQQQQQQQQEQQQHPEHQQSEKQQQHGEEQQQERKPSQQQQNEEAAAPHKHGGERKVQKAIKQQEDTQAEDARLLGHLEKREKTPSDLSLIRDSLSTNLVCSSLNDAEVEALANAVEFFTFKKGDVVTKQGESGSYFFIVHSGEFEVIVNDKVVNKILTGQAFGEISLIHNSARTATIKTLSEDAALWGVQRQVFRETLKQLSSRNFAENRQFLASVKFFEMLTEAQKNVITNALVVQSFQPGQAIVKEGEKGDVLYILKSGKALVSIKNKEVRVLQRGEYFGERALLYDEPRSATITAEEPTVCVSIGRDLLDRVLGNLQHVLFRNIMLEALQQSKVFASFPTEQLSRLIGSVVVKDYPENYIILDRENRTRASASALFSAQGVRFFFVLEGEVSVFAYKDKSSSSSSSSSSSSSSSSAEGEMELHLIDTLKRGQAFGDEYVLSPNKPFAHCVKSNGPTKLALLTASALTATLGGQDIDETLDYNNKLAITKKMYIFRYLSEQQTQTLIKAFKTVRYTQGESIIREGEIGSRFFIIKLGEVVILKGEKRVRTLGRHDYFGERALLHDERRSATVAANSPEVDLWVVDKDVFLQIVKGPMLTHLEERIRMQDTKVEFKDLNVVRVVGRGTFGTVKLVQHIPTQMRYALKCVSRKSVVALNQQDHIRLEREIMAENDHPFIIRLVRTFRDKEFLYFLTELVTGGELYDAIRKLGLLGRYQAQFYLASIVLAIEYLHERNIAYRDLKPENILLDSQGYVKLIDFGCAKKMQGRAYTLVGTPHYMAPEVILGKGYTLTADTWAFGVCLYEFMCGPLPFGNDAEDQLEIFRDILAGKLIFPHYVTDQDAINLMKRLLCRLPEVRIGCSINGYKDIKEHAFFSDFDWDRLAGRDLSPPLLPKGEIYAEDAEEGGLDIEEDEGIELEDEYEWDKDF
quantityName: IC50

// field: IC50; key: `CN1CCC(c2cc(-c3ccncc3)c(-c3ccc(F)cc3)[nH]2)CC1` ; value = < 5 nM

###

target: E. tenella PKG (Eimeria tenella); experiment: biochemical; type: biochemical; settings: recombinant expressed E. tenella PKG (Et.PKG7, Sf9 cells); read-out: IC50, inhibition of PKG catalytic activity
quantityName: IC50

// returns IC50 for `CN1CCC(c2cc(-c3ccncc3)c(-c3ccc(F)cc3)[nH]2)CC1` with E. tenella PKG (Eimeria tenella); value = < 5 nM
